Just for reference, patent US20100196390A1 is where these values come from.

systemTested: T1, rat TrkB monomer (His ECD) (rat, UniProt Q63604 32-429)
T1 construct: extracellular domain; amine-coupled to the chip
T1 sequence (Q63604 32-429): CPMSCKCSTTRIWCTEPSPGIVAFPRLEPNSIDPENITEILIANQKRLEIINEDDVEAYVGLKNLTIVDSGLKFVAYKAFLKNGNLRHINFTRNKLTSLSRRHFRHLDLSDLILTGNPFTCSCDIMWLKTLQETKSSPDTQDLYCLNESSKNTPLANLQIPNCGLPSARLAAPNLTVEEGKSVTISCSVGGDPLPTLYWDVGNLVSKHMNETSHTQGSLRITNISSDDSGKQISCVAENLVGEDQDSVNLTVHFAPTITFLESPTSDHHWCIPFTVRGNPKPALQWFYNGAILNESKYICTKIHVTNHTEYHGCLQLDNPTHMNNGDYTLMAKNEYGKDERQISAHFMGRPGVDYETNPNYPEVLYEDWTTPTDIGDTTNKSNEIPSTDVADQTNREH
assayName: SPR (Biacore), Fab over amine-coupled TrkB His ECD monomer, 25 C
parameter: Kd (nM)
Give the number; nM is assumed, so skip it.

// field: Kd; key: A2 (Fab, V domains shown, Fab) VH: QVQLVQSGAEVKKPGASVKVSCKASGYTFTNYDIIWVRQAPGQGLEWMGYINPYNDGTKYNEKFKGRVTMTRDTSTSTVYMELSSLRSEDTAVYYCARLLKYRRFRYYAIDYWGQGTTVTVSS VL: DIQMTQSPSSLSASVGDRVTITCRASENVYSNLAWYQQKPGKAPKLLIYAASNLQSGVPSRFSGSGSGTDYTFTISSLQPEDIATYYCQHFWYSPWTFGQGTKLEIK ; value = 1.18
